SUBJECT OF TEST: human SPPL2a (Homo sapiens, UniProt Q8TCT8)
Sequence (Q8TCT8 26-520): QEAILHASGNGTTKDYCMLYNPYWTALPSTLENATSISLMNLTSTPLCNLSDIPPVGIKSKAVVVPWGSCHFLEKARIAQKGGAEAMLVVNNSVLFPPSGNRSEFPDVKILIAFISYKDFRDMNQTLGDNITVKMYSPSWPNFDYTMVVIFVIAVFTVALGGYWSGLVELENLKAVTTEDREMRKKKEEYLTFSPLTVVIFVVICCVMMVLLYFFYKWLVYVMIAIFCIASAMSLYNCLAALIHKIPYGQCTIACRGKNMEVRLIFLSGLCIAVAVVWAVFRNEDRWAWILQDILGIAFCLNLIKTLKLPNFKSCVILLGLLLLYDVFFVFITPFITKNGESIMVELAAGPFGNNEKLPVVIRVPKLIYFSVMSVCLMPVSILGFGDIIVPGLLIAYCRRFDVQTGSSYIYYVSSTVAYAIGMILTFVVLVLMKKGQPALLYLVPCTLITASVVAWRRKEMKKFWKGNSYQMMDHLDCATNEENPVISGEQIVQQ
PROTOCOL SUMMARY: Sppl2a TL (translocation) imaging assay in U-2 OS cells
Type: cell-based
Parameters: expressed in transfected cells
TEST CONDITIONS: U-2 OS cells expressing human SPPL2a and EGFP-TNFα(aa1-76) NTF substrate; 24 h
Record form. Attribute: log10 of IC50. Fill in for each entry.
Values below are the log10 of the recorded IC50, with nM as the unit.

Input: Entry under review: C[C@H](CC(=O)Nc1cc(-c2ccc(C(F)(F)F)nc2)nn1C)C(=O)N[C@@H]1C(=O)N2CCCN2Cc2ccccc21 [Example 72] . Reported log10 of IC50?
Output: 0.60

Input: Entry under review: CCNC(=O)c1nc(C)c(C(=O)NC[C@@H](CC)C(=O)N[C@@H]2C(=O)N3CCCN3Cc3ccccc32)s1 [Example 10] . Reported log10 of IC50?
Output: 0.60

Input: Entry under review: O=C(C[C@H](C(=O)N[C@@H]1C(=O)N2CCCN2C(=O)c2ccccc21)C1CC1)Nc1sc(-c2ccc(C(F)(F)F)nc2)nc1Cl [Example 107] . Reported log10 of IC50?
Output: 1.18

Input: Entry under review: CCNC(=O)c1nc(C)c(C(=O)NC[C@H](C(=O)N[C@@H]2C(=O)N3CCCN3Cc3ccccc32)C(F)(F)F)s1 [Example 7] . Reported log10 of IC50?
Output: 0.48

Input: Entry under review: Cc1cc(-c2cc(NC(=O)C[C@@H](C)C(=O)N[C@@H]3C(=O)N4CCCN4Cc4ccccc43)n(C)n2)no1 [Example 80] . Reported log10 of IC50?
Output: 0.85

Input: Entry under review: Cc1nc(NC(=O)C(C)C)sc1C(=O)NC[C@H](C(=O)N[C@@H]1C(=O)N2CCCN2Cc2ccccc21)C(F)(F)F [Example 3] . Reported log10 of IC50?
Output: -0.30

Input: Entry under review: C[C@H](CC(=O)Nc1cc(-c2ccccn2)nn1C)C(=O)N[C@@H]1C(=O)N2CCCN2Cc2ccccc21 [Example 94] . Reported log10 of IC50?
Output: 1.08

Input: Entry under review: C[C@H](Cc1nc2cccc(Br)c2[nH]1)C(=O)N[C@@H]1C(=O)N2CCCN2Cc2ccccc21 [Example 113] . Reported log10 of IC50?
Output: 2.26

Input: Entry under review: Cc1cc(-c2cc(NC(=O)C[C@@H](C)C(=O)N[C@@H]3C(=O)N4CCCN4Cc4ccccc43)n(C)n2)on1 [Example 90] . Reported log10 of IC50?
Output: 1.04

Input: Entry under review: O=C(NC[C@H](C(=O)N[C@@H]1C(=O)N2CCCN2Cc2c(F)cccc21)C1CC1)c1sc(C2CC2)nc1Cl [Example 54] . Reported log10 of IC50?
Output: 2.11

Input: Entry under review: CC[C@H](CNC(=O)c1ccnn1C(F)F)C(=O)N[C@@H]1C(=O)N2CC3(CC3)CN2C(=O)c2ccccc21 [Example 56] . Reported log10 of IC50?
Output: 2.28

Input: Entry under review: CCOc1nc(C)c(C(=O)NC[C@@H](CC)C(=O)N[C@@H]2C(=O)N3CCCN3Cc3ccccc32)s1 [Example 53] . Reported log10 of IC50?
Output: 2.10

Input: Entry under review: CC(C)NC(=O)c1cc(NC(=O)C[C@H](C(=O)N[C@@H]2C(=O)N3CCCN3Cc3c(F)cccc32)C2CC2)n(C)n1 [Example 77] . Reported log10 of IC50?
Output: 0.78

Input: Entry under review: CC[C@H](CNC(=O)c1sc(-c2ccc(OC(F)F)nc2)nc1Cl)C(=O)N[C@@H]1C(=O)N2CCCN2C(=O)c2ccccc21 [Example 37] . Reported log10 of IC50?
Output: 1.72

Input: Entry under review: CCNC(=O)c1nc(C)c(C(=O)NC[C@@H](C)C(=O)N[C@@H]2C(=O)N3CCCN3Cc3ccccc32)s1 [Example 16] . Reported log10 of IC50?
Output: 1.04

Input: Entry under review: CCn1nc(-c2ccc(C(F)(F)F)nc2)cc1NC(=O)C[C@@H](C)C(=O)N[C@@H]1C(=O)N2CCCN2Cc2ccccc21 [Example 83] . Reported log10 of IC50?
Output: 0.95

Input: Entry under review: CC[C@H](CNC(=O)c1sc(C(=O)NC)nc1C)C(=O)N[C@@H]1C(=O)N2CCCN2Cc2ccccc21 [Example 13] . Reported log10 of IC50?
Output: 0.78

Input: Entry under review: C[C@H](CC(=O)Nc1cc(NC(=O)c2ccccc2F)nn1C)C(=O)N[C@@H]1C(=O)N2CCCN2Cc2ccccc21 [Example 69] . Reported log10 of IC50?
Output: 0.48

Input: Entry under review: CC(C)C(=O)Nc1cc(NC(=O)C[C@@H](C)C(=O)N[C@@H]2C(=O)N3CCCN3Cc3ccccc32)n(C)n1 [Example 62] . Reported log10 of IC50?
Output: -0.52

Input: Entry under review: C[C@H](Cc1nc2c(Cl)cccc2[nH]1)C(=O)N[C@@H]1C(=O)N2CCCN2Cc2ccccc21 [Example 115] . Reported log10 of IC50?
Output: 3.60

Input: Entry under review: CC[C@H](CNC(=O)c1scnc1Cl)C(=O)N[C@@H]1C(=O)N2CCCN2Cc2ccccc21 [Example 39] . Reported log10 of IC50?
Output: 1.73

Input: Entry under review: C[C@H](CC(=O)Nc1cc(C(=O)NCC(F)F)nn1C)C(=O)N[C@@H]1C(=O)N2CCCN2Cc2ccccc21 [Example 65] . Reported log10 of IC50?
Output: 0.00

Input: Entry under review: CC[C@H](CNC(=O)c1sc(C2=CCCC2)nc1Cl)C(=O)N[C@@H]1C(=O)N2CCCN2C(=O)c2ccccc21 [Example 28] . Reported log10 of IC50?
Output: 1.45

###

SUBJECT OF TEST: human SPPL2a (Homo sapiens, UniProt Q8TCT8)
PROTOCOL SUMMARY: Sppl2a TL (translocation) imaging assay in U-2 OS cells
Type: cell-based
Parameters: expressed in transfected cells
TEST CONDITIONS: U-2 OS cells expressing human SPPL2a and EGFP-TNFα(aa1-76) NTF substrate; 24 h
Would you mind sorting the entries by IC50 according to these classes? low value (below 3 nM), medium value (3 nM to below 30 nM), high value (30 nM or more)

Input: Which category does the recorded IC50 put CC[C@H](CNC(=O)c1scnc1C)C(=O)N[C@@H]1C(=O)N2CCCN2Cc2ccccc21 [Example 29] in?
Output: medium value

Input: Which category does the recorded IC50 put Cc1nc(Cl)c(C(=O)NC[C@H](C(=O)N[C@@H]2C(=O)N3CCCN3Cc3c(F)cccc32)C2CC2)s1 [Example 55] in?
Output: high value

Input: Which category does the recorded IC50 put Cc1cccc2nc(C[C@@H](C)C(=O)N[C@@H]3C(=O)N4CCCN4Cc4ccccc43)[nH]c12 [Example 112] in?
Output: high value

Input: Which category does the recorded IC50 put C[C@H](CC(=O)Nc1cc(-c2ccc(F)cn2)nn1C)C(=O)N[C@@H]1C(=O)N2CCCN2Cc2ccccc21 [Example 87] in?
Output: medium value

Input: Which category does the recorded IC50 put Cc1nc(NC(=O)C(C)C)sc1C(=O)NC[C@@H](C)C(=O)N[C@@H]1C(=O)N2CCCN2Cc2ccccc21 [Example 4] in?
Output: low value

Input: Which category does the recorded IC50 put C[C@H](CC(=O)Nc1cc(C(=O)NCCC(F)(F)F)nn1C)C(=O)N[C@@H]1C(=O)N2CCCN2Cc2ccccc21 [Example 84] in?
Output: medium value

Input: Which category does the recorded IC50 put Cc1nc(C(=O)NCC(F)F)sc1C(=O)NC[C@H](C(=O)N[C@@H]1C(=O)N2CCCN2Cc2ccccc21)C(F)(F)F [Example 5] in?
Output: low value

Input: Which category does the recorded IC50 put CCC[C@H](Cc1nc2cc(F)cc(C)c2[nH]1)C(=O)N[C@@H]1C(=O)N2CCCN2Cc2ccccc21 [Example 119] in?
Output: high value

Input: Which category does the recorded IC50 put CNC(=O)c1nc(C)c(C(=O)NC[C@@H](C)C(=O)N[C@@H]2C(=O)N3CCCN3Cc3ccccc32)s1 [Example 1] in?
Output: medium value

Input: Which category does the recorded IC50 put C[C@H](CC(=O)Nc1sc(-c2cnn(C3COC3)c2)nc1Cl)C(=O)N[C@@H]1C(=O)N2CCCN2Cc2ccccc21 [Example 95] in?
Output: medium value

Input: Which category does the recorded IC50 put C[C@H](Cc1nc2ccccc2[nH]1)C(=O)N[C@@H]1C(=O)N2CCCN2Cc2ccccc21 [Example 111] in?
Output: high value

Input: Which category does the recorded IC50 put CC(C)NC(=O)c1cc(NC(=O)C[C@H](C(=O)N[C@@H]2C(=O)N3CCCN3Cc3ccccc32)C2CC2)n(C)n1 [Example 67] in?
Output: low value

FYI, the data here is from patent US20230365571A1.
